Entries and their measured log10 of TGI follow.
Tested on: KM12 colon
Assay: NCI tumour cell line growth inhibition, 48 h
Record value = log10 of TGI given in µM.

Take a look at these entries with their results.
>>> quantitative_readout("COc1cc2c(OC)c(c1)CCCC1=CC(=O)C=C(CCC2)C1=O")
1.78
>>> quantitative_readout("CN(C)CCCn1c2c3ccccc3ccc2c2oc(=O)c3ccccc3c21")
1.01
>>> quantitative_readout("COc1cc(-c2cc(-c3nc4ccccc4[nH]3)[nH]n2)cc(OC)c1OC")
1.06
>>> quantitative_readout("Cc1ccc(NS(=O)(=O)c2cc(C)ccc2C)cc1")
1.22
>>> quantitative_readout("CC1(C)N=C(N)N=C(N)N1c1cccc(CCCCc2ccc(S(=O)(=O)F)cc2Cl)c1")
1.20

Just so you know, measured log10 of TGI for Cc1cc(S(N)(=O)=O)c(S/C(=N\Nc2ccc([N+](=O)[O-])cc2)c2ccc(Cl)cc2)cc1Cl came out at 0.62

Just so you know, measured log10 of TGI for Cc1c(CN2CCC(Nc3ncnc4sc(CC(F)(F)F)cc34)CC2)ccc2c1cc(C#N)n2Cc1cn[nH]c1 came out at 1.35

Just so you know, measured log10 of TGI for CCC(C)/C=C(C)/C=C/C(=O)c1c(O)c(-c2ccc(O)cc2)c[nH]c1=O (stereo unspecified) came out at 1.09

Just so you know, measured log10 of TGI for O=Cc1[nH]c2ccccc2c1Br came out at 1.70

Just so you know, measured log10 of TGI for CCOC(=O)C1(Cc2ccccc2)CCN(C(=O)c2ccccc2)C2C1C2(Cl)Cl (stereo unspecified) came out at 1.98

---

Tested on: HL-60(TB) leukemia
Assay: NCI tumour cell line growth inhibition, 48 h
Property label: TGI

Just so you know, measured TGI for CN(C)CCCNC(=O)CNC(=O)c1cc(NC(=O)c2cc(NC(=O)c3cc(NC(=O)CCNC(=O)c4cc(NC(=O)c5cc(NC(=O)c6nccn6C)cn5C)cn4C)cn3C)cn2C)cn1C came out at 94.1 µM

Just so you know, measured TGI for c1cncc(CNc2ccccc2-c2nnc(Nc3ccc4c(c3)OCCO4)o2)c1 came out at 3.34 µM

Just so you know, measured TGI for COc1ccccc1/C=C1/Sc2scc(CC(=O)Nc3ccccc3)[n+]2C1=O came out at 47.1 µM

Just so you know, measured TGI for CN(C)CC#Cc1cccc(C(=O)c2cnn(-c3ccc(F)cc3)c2N)c1 came out at > 25 µM

---

Test system: LOX IMVI melanoma
Assay: NCI tumour cell line growth inhibition, 48 h; in the data active = GI50 below about 0.43 µM; inactive = the rest
Please state which outcome applies, choosing from 1.0 = active, 0.0 = inactive

>>> label_value("CCOC(=O)[C@@H](C)C[C@H](Cc1ccccc1)NC(=O)c1csc([C@@H](C[C@H](C(C)C)N(C)C(=O)[C@H](CCC(C)C)NC(=O)[C@H]2CCCCN2C)OC(C)=O)n1")
1.0

Query string: Field: outcome | Entry: Cc1nc(Nc2ccc(F)c(Cl)c2)sc1C(=O)O
Result string: 0.0

Query string: Field: outcome | Entry: NC(=NC1CCCCCC1)c1ccc(N2CCN(c3ccc(C(N)=NC4CCCCCC4)cc3)CC2)cc1
Result string: 0.0

Query string: Field: outcome | Entry: Clc1cc(Cl)cc(N2N=C(c3cccc(Nc4ccncc4)c3)CC2c2ccc(Br)cc2)c1 (centres undefined)
Result string: 0.0
